The binders listed here are annotated with their AtheNA signal.
Target: histones
Experiment: AtheNA Multi-Lyte ANA, Ab at 50 ug/ml

>  <binder>
Ab7962/293i (antibody, V domains shown) VH: LVESGGGLVQPGGSLRLSCAASGFTFSSYEMNWVRQAPGKGLEWVSYISSSGSTIYYADSVKGRFTISRDNAKNSLYLQMNSLRAEDTAVYYCARVEQLAPSPYMDVWGKGTTVTVSS VL: MTQSLDSLTVSLGERATINCKSSQSLLYTSNNKNYLAWYQQKSGQPPKLLIYWASIRDSGVPDRFSGSGSATDFTLTINNLQAEDVAVYFCQQYYKTPLTFGGGTKVEVR

>  <AtheNA signal>
4

$$$$
>  <binder>
Ab7960/293i (antibody, IgG1, V domains shown) VH: LVESGGGVVQPGKSLRLSCVASGFSFSTYGMHWVRQAPGKGLEWVAVMSFDGKTKYYADSVKGRFTISRDNPKNTLYLQMNSLRSEDTAVYYCAKGGAAAAVFDSWGPGILLTVSS VL: MTQSPNSLAVSLGGRATINCKASQSILYRSNNKNYLAWYQHKAGQPPKLLIYWASTRESGVPERFSGSGSRTDFTLTINGLQAEDVAVYYCQQYYNPPWTFGQGTKVEIK

>  <AtheNA signal>
31

$$$$
